Test system: SNB-19
Test: NCI tumour cell line growth inhibition, 48 h
Calls of active or inactive are those of the source. Rule as the data show it: active = GI50 up to about 1.1 µM and inactive = higher.
The reply should name one outcome from y (active), n (inactive)

Some entries whose results are on file:
# compound, assigned.category
records = [
    ("S=C1NC2=C(COC/C2=C\\c2ccccc2Cl)C(c2ccccc2Cl)N1 (stereo not given)", "n"),
    ("CCOP(=O)(OCC)/C(C#N)=C\\c1ccsc1", "n"),
    ("CC1=C(C(=O)Nc2ccc(Cl)c(Cl)c2)C(c2ccco2)C(C(=O)Nc2ccc(Cl)c(Cl)c2)=C(C)N1", "n"),
]

Req: Test call for this compound, please: CC(C)(C)OC(=O)n1c(-c2ccccc2F)cc(=O)c2cc3c(cc21)OCO3
Resp: y

Req: Test call for this compound, please: CC[C@@]1(O)C(=O)OCc2c1cc1n(c2=O)Cc2cc3c(OC)cccc3nc2-1
Resp: y

====

System: SR
Experiment: NCI tumour cell line growth inhibition, 48 h
Active and inactive are the calls of the source. No stated cut-off is given here; in the data, active = GI50 up to about 1.1 µM and inactive = higher.
The reply should name one outcome from True for active, False for inactive

Some entries whose results are on file:
# molecule, assigned.category
records = [
    ("O=C1CC2CCCC23CC2(CCN13)OCCO2 (stereo not drawn)", "False"),
    ("Cn1c(=O)c(Br)c(C=O)n(CCO[N+](=O)[O-])c1=O", "False"),
    ("COc1c(-c2cc(C)c(Cl)c(=O)[nH]2)c(O)c(OC)c2occc12", "False"),
    ("Nc1cc2c3c(c1)Oc1cc(N)cc4c1C3c1c(cc(N)cc1O4)O2", "False"),
    ("Cc1cccc2c(N)c3cccc(C(=O)NCCNCCN)c3nc12", "False"),
    ("O=C(/C=C1\\C[C@H]2C=Nc3ccccc3C(=O)N2C1)NCCCNC(=O)/C=C1\\C[C@H]2C=Nc3ccccc3C(=O)N2C1", "False"),
    ("CCCCOC(=O)N[C@H]1CCc2cc(OC)c(OC)c(OC)c2-c2ccc(SC)c(=O)cc21", "True"),
    ("NC(CCC(=O)c1ccccn1)C(=O)O (stereo not drawn)", "False"),
]

Req: Test call for this molecule, please: CCOC(=O)C1CCC(=O)N1C(=O)c1ccccc1 (stereo not drawn)
Resp: False

====

Test system: CCRF-CEM
Assay: NCI tumour cell line growth inhibition, 48 h
Active and inactive are the calls of the source. No stated cut-off is given here; in the data, active = GI50 up to about 1.1 µM and inactive = higher.
The reply should name one outcome from TRUE (active), FALSE (inactive)

Req: Test call for this molecule, please: CC1(C)N=[N+]([O-])C1(C)C
Resp: FALSE

Req: Test call for this molecule, please: O=C(OC1CN2CCC1CC2)N(c1ccccc1)c1ccccc1 (configuration not stated)
Resp: FALSE

Req: Test call for this molecule, please: C#CC(O)/C=C/CCCCCCC#CC/C=C\CC#CCCCCCC/C=C/C(O)C#C (configuration not stated)
Resp: TRUE

====

Test system: K562
Assay: NCI tumour cell line growth inhibition, 48 h
Calls of active or inactive are those of the source. No stated cut-off is given here; in the data, active = GI50 up to about 1.1 µM and inactive = higher.
The reply should name one outcome from class 1 = active, class 0 = inactive

Req: Test call for this molecule, please: S=C1NC2=C(COC/C2=C\c2ccccc2Cl)C(c2ccccc2Cl)N1 (stereo not drawn)
Resp: class 0

====

Listing: GI50 of selected molecules
Test system: SK-MEL-5
Experiment: NCI tumour cell line growth inhibition, 48 h
Calls of active or inactive are those of the source. Rule as the data show it: active = GI50 up to about 1.1 µM and inactive = higher.

Worked examples follow.
# molecule, GI50
data = [
    ("CCCCCCCC(=O)OC[n+]1ccc(-c2c(COC(=O)NC(C)C)c(COC(=O)NC(C)C)c3n2CCC3)cc1", "34.8 µM (inactive)"),
    ("CCCCCCCCCCCCCCCC(=O)OCC(COP(=O)(O)OCCNC(=O)CCSSc1ccccn1)OC(=O)CCCCCCCCCCCCCCC (centres undefined)", "> 100 µM (inactive)"),
    ("CCc1nn(CN2CCN(C)CC2)c(=S)n1/N=C\\c1ccc(-c2ccc([N+](=O)[O-])cc2)o1", "40.5 µM (inactive)"),
    ("CSC1(Cc2ccccn2)C(=O)Nc2cccc([N+](=O)[O-])c21 (centres undefined)", "> 100 µM (inactive)"),
    ("O=C1C2C3C=C4c5ccccc5N(c5ccccc5)C4(C2C(=O)N1c1ccc(Br)cc1)[C@H]1C(=O)N(c2ccc(Br)cc2)C(=O)[C@@H]31 (some centres undefined)", "> 100 µM (inactive)"),
]

Sure, the documented GI50 for CCOC(=O)CNC(=O)C(CCC(=O)N(C)O)NC(=O)CCC(N)C(=O)O (centres undefined) is > 100 µM (inactive)

====

Tested on: NCI/ADR-RES
Assay: NCI tumour cell line growth inhibition, 48 h
Active and inactive are the calls of the source. Rule as the data show it: active = GI50 up to about 1.1 µM and inactive = higher.
Listing: GI50 of selected compounds

Worked examples follow.
# compound, GI50
rows = [
    ("Cc1nc2cccc([N+](=O)[O-])c2c(NCCCN(C)C)c1C", "> 100 µM (inactive)"),
    ("C1CCC2(CC1)O[C@@H]1[C@@H](O2)[C@@H](O[C@H]2O[C@@H]3COC4(CCCCC4)O[C@H]3[C@@H]3OC4(CCCCC4)O[C@@H]23)O[C@@H]2COC3(CCCCC3)O[C@@H]12", "> 100 µM (inactive)"),
    ("CC(=O)O/C=C\\OC1CCCC1(c1ccccc1)c1ccccc1 (configuration not stated)", "2.84 µM (inactive)"),
    ("CCOC(=O)C1=C(C)NC(=O)NC1c1ccc(N(CCCl)CCCl)cc1Cl (configuration not stated)", "16.7 µM (inactive)"),
    ("COC(=O)CCC(=O)c1ccc2c(c1)CC1(C2)Cc2ccc(C(=O)CCC(=O)OC)cc2C1", "37.4 µM (inactive)"),
]

Sure, the documented GI50 for CCOC(=O)c1c(N2CCOCC2)[nH]c(=O)c(C(c2ccco2)c2c(O)c(C(=O)OCC)c(N3CCOCC3)[nH]c2=O)c1O is > 100 µM (inactive)

Sure, the documented GI50 for CN(C)/C=C/c1ccncc1 is > 100 µM (inactive)

====

System: Malme-3M
Test: NCI tumour cell line growth inhibition, 48 h
The source made the active and inactive calls. Cut-off read from the data, not from the text of the source: active = GI50 up to about 1.1 µM and inactive = higher.
measured.quantity: GI50

# compound, target.system, GI50
records = [
    ("CO[C@]12CC(=O)C3(C(C[C@H]4CC5CC[C@H]6C[C@@H](OC(C)=O)CC[C@]6(OC(C)=O)C5C[C@@]43C)C1)C1C[C@H]3[C@@H]4CC[C@H]5C[C@@H](OC(C)=O)CC[C@]5(OC(C)=O)[C@H]4CC[C@]3(C)C12 (some centres undefined)", "Malme-3M", "> 100 µM (inactive)"),
    ("C=CCCC1CCCCNC1=S (centres undefined)", "Malme-3M", "> 10 µM (inactive)"),
    ("NC(=O)N/N=C(/Cc1nc2ccc(C(=O)c3ccccc3)cc2nc1O)C(=O)Nc1ccc(C(F)(F)F)cc1[N+](=O)[O-]", "Malme-3M", "> 100 µM (inactive)"),
    ("CN(C)C/C=C(/c1ccc(Br)cc1)c1cccnc1", "Malme-3M", "20.2 µM (inactive)"),
    ("N#CC(=N)c1ncn(-c2ccc(N)cc2)c1N", "Malme-3M", "> 100 µM (inactive)"),
]

Sure, the documented GI50 for O=C1Cc2c(-c3ccc(Cl)cc3)cc(-c3ccccc3)nc2-c2ccccc2N1 is 17 µM (inactive)

Sure, the documented GI50 for CN1C(=O)C2CCC(=O)N2c2cccnc21 (centres undefined) is > 100 µM (inactive)

Sure, the documented GI50 for O=C(NNC(=S)NCc1ccccc1)C12CC3CC(CC(C3)C1)C2 is > 100 µM (inactive)

Sure, the documented GI50 for CN1CCc2c3n(c4cc(Br)ccc24)[C@H](O)CCCC31 (some centres undefined) is 2.04 µM (inactive)

====

Tested on: NCI-H460
Test: NCI tumour cell line growth inhibition, 48 h
Calls of active or inactive are those of the source. Cut-off read from the data, not from the text of the source: active = GI50 up to about 1.1 µM and inactive = higher.
The reply should name one outcome from active, inactive

Some entries whose results are on file:
# compound, assigned.category
rows = [
    ("COc1ccc(N2C(=O)C3C=CC(n4[nH]c(=O)n(Cc5ccccc5)c4=O)CC3C2=O)cc1 (stereo not given)", "inactive"),
    ("COc1cc(C=C(c2ccc(N(C)C)cc2)c2ccc(N(C)C)cc2)c2ccccc2c1OC", "inactive"),
    ("Cc1ccsc1C(=O)C(CC(=O)c1cccs1)c1ccsc1 (stereo not given)", "inactive"),
]

Req: Test call for this compound, please: O=C(Cc1ccccc1)NN1C(=O)C(Cl)C1c1cc(Br)ccc1O (stereo not given)
Resp: inactive

Req: Test call for this compound, please: O=C(Nc1ccc(N2C(=O)CSC2c2cccs2)cc1)c1ccc(N2C(=O)CSC2c2cccs2)cc1 (stereo not given)
Resp: inactive

Req: Test call for this compound, please: Cc1nc(C)c(C(=O)Nc2cccc3c2C(=O)NC3=O)cc1C(=O)Nc1cccc2c1C(=O)NC2=O
Resp: inactive
